Test system: ABL1-nonphosphorylated;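 further: KINOMEscan kinase panel screen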
Conditions: concentration: 1 μM, replicates: in singlicate; n = 1
result type: %Inh (%)
Answers are plain numbers, in %.

| molecule | %Inh, % |
| --- | --- |
| O=c1cc(N2CCOCC2)nc2n(Cc3cccc(C(F)(F)F)c3)ccn12 | 0 |

Each of the following entries comes with a recorded value; kindly state %Inh for each.
1. COc1ccc(CNC(=O)NC2CCN(c3ccnc(Nc4ccc(OC)cc4)n3)C2)cc1 (stereo not shown)
2. NS(=O)(=O)CCc1cccc(Nc2nccc(-c3c(-c4cccc(NC(=O)c5c(F)cccc5F)c4)nn4ccccc34)n2)c1
3. Cc1ccc(NC(=O)c2ccnc(N3CCN(C)CC3)c2)cc1-c1ccc(C(=O)NCC2CC2)cc1

0
95.3
45
